Assay system: T1, human TIGIT-His protein (human, UniProt Q495A1 22-141)
T1 construct: Recombinant protein; also called human TIGIT-his tag; hTIGIT-His
T1 sequence (looked up): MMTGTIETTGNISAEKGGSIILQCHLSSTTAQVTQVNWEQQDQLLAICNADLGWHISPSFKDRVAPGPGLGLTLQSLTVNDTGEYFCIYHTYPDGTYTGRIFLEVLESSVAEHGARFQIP
Assay name: SPR (Biacore) affinity ranking, human TIGIT-His
Property: kon; scope: individual binders
Field format: number, assumed M⁻¹ s⁻¹, no unit text.

Examples with their reported kon follow.
INSERT INTO measurements (binder, readout_kind, value_reported) VALUES
  ('76D12B10-Hu06 (antibody, V domains shown, Humanized, VH.V1 + VK.V1) VH: EVQLQESGPGLVKPSETLSLTCAVSGYSISSGYDWHWIRQPPGKGLEWIGFIRDSGSTVYNPSLKGRVTISHDTSKNQFSLKLSSVTAADTAVYYCARGLFWYFDVWGQGTTVTVSS VL: DIQMTQSPSSLSASVGDRVTITCRTSENIFSYLAWYQQKPGKVPKLLIHNTKTLAEGVPSRFSGSGSGTDFTLTISSLQPEDVATYYCQHHYGNPLTFGQGTKLEIK', 'kon', '7.43e+06'),
  ('76D12B10-Hu07 (antibody, V domains shown, Humanized, VH.V2 + VK.V1) VH: EVQLQESGPGLVKPSETLSLTCAVSGYSISSGYDWHWIRQPPGKGLEWIGFIRDSGSTVYNPSLKGRITISHDTSKNQFSLKLSSVTAADTAVYYCARGLFWYFDVWGQGTTVTVSS VL: DIQMTQSPSSLSASVGDRVTITCRTSENIFSYLAWYQQKPGKVPKLLIHNTKTLAEGVPSRFSGSGSGTDFTLTISSLQPEDVATYYCQHHYGNPLTFGQGTKLEIK', 'kon', '4.8e+06'),
  ('76D12B10-Hu14 (antibody, V domains shown, Humanized, VH.V4 + VK.V2) VH: EVQLQESGPGLVKPSETLSLTCAASGYSITSGYDWHWIRQPPGKGLEWMGFIRDSGSTVYNPSLKGRITISHDTSKNQFSLKLSSVTAADTAVYYCARGLFWYFDVWGQGTTVTVSS VL: DIQMTQSPSSLSASVGDRVTITCRTSENIFSYLAWYQQKPGKVPKLLVHNTKTLAEGVPSRFSGSGSGTDFTLTISSLQPEDVATYYCQHHYGNPLTFGQGTKLEIK', 'kon', '5.09e+06');

Please indicate kon recorded for 76D12B10-Hu08 (antibody, V domains shown, Humanized, VH.V3 + VK.V1) VH: EVQLQESGPGLVKPSETLSLTCAVSGYSISSGYDWHWIRQPPGKGLEWMGFIRDSGSTVYNPSLKGRITISHDTSKNQFSLKLSSVTAADTAVYYCARGLFWYFDVWGQGTTVTVSS VL: DIQMTQSPSSLSASVGDRVTITCRTSENIFSYLAWYQQKPGKVPKLLIHNTKTLAEGVPSRFSGSGSGTDFTLTISSLQPEDVATYYCQHHYGNPLTFGQGTKLEIK
5.06e+06

Please indicate kon recorded for 76D12B10-Hu01 (antibody, V domains shown, Humanized, VH.V1 + VK.V0) VH: EVQLQESGPGLVKPSETLSLTCAVSGYSISSGYDWHWIRQPPGKGLEWIGFIRDSGSTVYNPSLKGRVTISHDTSKNQFSLKLSSVTAADTAVYYCARGLFWYFDVWGQGTTVTVSS VL: DIQMTQSPSSLSASVGDRVTITCRTSENIFSYLAWYQQKPGKVPKLLIYNTKTLAEGVPSRFSGSGSGTDFTLTISSLQPEDVATYYCQHHYGNPLTFGQGTKLEIK
1.48e+06
